Values compiled from ChEMBL document CHEMBL1130376.

# protocolText: Cytotoxicity against human epidermoid carcinoma KB cells
# Type: functional, cell-based
As shown below, each of these compounds has a reported IC50 value.

Example entries begin here.
compound	IC50
C=C1[C@@H](OC(=O)/C=C/c2ccccc2)CC[C@@]2(C)[C@@H](OC(C)=O)[C@H](OC(C)=O)C3=C(C)C(=O)C[C@@H]([C@@H](OC(C)=O)[C@H]12)C3(C)C	> 10 µg/mL
CC(=O)O[C@H]1C[C@H]2[C@@H](OC(C)=O)/C=C3\C[C@](C)(C(=O)[C@H](O)C(=C1C)C2(C)C)[C@@H](OC(C)=O)C[C@@H]3OC(=O)C(O)C(c1ccccc1)N(C)C (stereo partly drawn)	> 10 µg/mL

Query compound follows.
Name the recorded IC50 for CC(=O)O[C@H]1C[C@H]2[C@@H](OC(C)=O)/C=C3\C[C@](C)(C(=O)[C@H](O)C(=C1C)C2(C)C)[C@@H](OC(C)=O)C[C@@H]3OC(=O)/C=C/c1ccccc1 [TAXUSPINE B] .
> 10 µg/mL
